Tested on: A-427
Assay Details: relative viability (nuclei count vs DMSO), 5 days (fraction); higher = more cells survive
Run Parameters: first compound 0.08 µM
Kindly apply the following: True if relative viability is less than 0.3, False in every other case.

[[record]]
molecule = "O=c1cc(-c2cccc3c2Sc2ccccc2S3)oc(N2CCOCC2)c1 + COc1cc2c(Oc3ccc(NC(=O)C4(C(=O)Nc5ccc(F)cc5)CC4)cc3F)ccnc2cc1OCCCN1CCOCC1 [Foretinib] (partner 0.25 µM)"
experimental_target = "A-427"
assigned_label = "False"

[[record]]
molecule = "O=c1cc(-c2cccc3c2Sc2ccccc2S3)oc(N2CCOCC2)c1 + Cc1cc(Nc2cc(N3CCN(C)CC3)nc(Sc3ccc(NC(=O)C4CC4)cc3)n2)n[nH]1 [Tozasertib] (partner 0.1 µM)"
experimental_target = "A-427"
assigned_label = "True"

[[record]]
molecule = "O=c1cc(-c2cccc3c2Sc2ccccc2S3)oc(N2CCOCC2)c1 + CS(=O)(=O)CCNCc1ccc(-c2ccc3ncnc(Nc4ccc(OCc5cccc(F)c5)c(Cl)c4)c3c2)o1 [Lapatinib] (partner 2 µM)"
experimental_target = "A-427"
assigned_label = "False"

[[record]]
molecule = "O=c1cc(-c2cccc3c2Sc2ccccc2S3)oc(N2CCOCC2)c1 + N=C(N)NC(=N)NCCc1ccccc1 [Phenformin] (partner 250 µM)"
experimental_target = "A-427"
assigned_label = "True"

[[record]]
molecule = "COc1nc(C)cnc1NS(=O)(=O)c1cccnc1-c1ccc(-c2nnco2)cc1 [Zibotentan] + Cc1nc(Nc2ncc(C(=O)Nc3c(C)cccc3Cl)s2)cc(N2CCN(CCO)CC2)n1 [Dasatinib] (partner 0.075 µM)"
experimental_target = "A-427"
assigned_label = "False"


----------
The following molecules are listed with their measured relative viability values.
Tested on: NCI-H1648
Assay Details: relative viability (nuclei count vs DMSO), 5 days (fraction); higher = more cells survive
Run Parameters: first compound 0.3162 µM
Measurement Name: relative viability

[[record]]
molecule = "O=c1cc(N2CCOCC2)oc2c(-c3cccc4c3sc3ccccc34)cccc12 + NC(=O)Nc1cc(-c2cccc(F)c2)sc1C(=O)N[C@H]1CCCNC1 [AZD7762] (partner 0.2 µM)"
measurement_name = "relative viability"
numeric_result = 0.609

[[record]]
molecule = "O=c1cc(N2CCOCC2)oc2c(-c3cccc4c3sc3ccccc34)cccc12 + Nc1ncn([C@H]2C[C@H](O)[C@@H](CO)O2)c(=O)n1 [Decitabine] (partner 2 µM)"
measurement_name = "relative viability"
numeric_result = 0.466

[[record]]
molecule = "CCN(CC)CCCCNc1ncc2cc(-c3cc(OC)cc(OC)c3)c(NC(=O)NC(C)(C)C)nc2n1 + O=C(CCCCCCC(=O)Nc1ccccc1)NO [Vorinostat] (partner 1 µM)"
measurement_name = "relative viability"
numeric_result = 0.602

[[record]]
molecule = "CCN(CC)CCCCNc1ncc2cc(-c3cc(OC)cc(OC)c3)c(NC(=O)NC(C)(C)C)nc2n1 + O=C(c1cc(Cc2n[nH]c(=O)c3ccccc23)ccc1F)N1CCN(C(=O)C2CC2)CC1 [Olaparib] (partner 8 µM)"
measurement_name = "relative viability"
numeric_result = 0.703

[[record]]
molecule = "CCN(CC)CCCCNc1ncc2cc(-c3cc(OC)cc(OC)c3)c(NC(=O)NC(C)(C)C)nc2n1 + NC(=O)Nc1cc(-c2cccc(F)c2)sc1C(=O)N[C@H]1CCCNC1 [AZD7762] (partner 0.2 µM)"
measurement_name = "relative viability"
numeric_result = 0.583

[[record]]
molecule = "O=c1cc(N2CCOCC2)oc2c(-c3cccc4c3sc3ccccc34)cccc12 + O=C(CCCCCCC(=O)Nc1ccccc1)NO [Vorinostat] (partner 1 µM)"
measurement_name = "relative viability"
numeric_result = 0.419

